Cited source for all entries: BigSolDB 2.1

# measurement.context: in methanol, 308.15 K

[
  {
    "compound": "NCC(CC(=O)O)c1ccc(Cl)cc1 (stereo unspecified)",
    "solubility (mole fraction)": 0.000173
  }
]

----------
# measurement.context: in DMAc, 273.15 K

[
  {
    "compound": "NCC(CC(=O)O)c1ccc(Cl)cc1 (stereo unspecified)",
    "solubility (mole fraction)": 0.0934
  }
]

----------
# measurement.context: in toluene, 283.15 K
assay.endpoint: solubility (mole fraction)

[
  {
    "compound": "NCC(CC(=O)O)c1ccc(Cl)cc1 (stereo unspecified)",
    "value.observed": 0.00601
  }
]

----------
# measurement.context: in isopropanol, 293.15 K
assay.endpoint: solubility (mole fraction)

[
  {
    "compound": "NCC(CC(=O)O)c1ccc(Cl)cc1 (stereo unspecified)",
    "value.observed": "5.35e-05"
  }
]

----------
# measurement.context: in n-propanol, 278.15 K
assay.endpoint: solubility (mole fraction)

[
  {
    "molecule": "NCC(CC(=O)O)c1ccc(Cl)cc1 (stereo unspecified)",
    "value.observed": "3.01e-05"
  }
]

----------
# measurement.context: in isopropanol, 278.15 K

[
  {
    "compound": "NCC(CC(=O)O)c1ccc(Cl)cc1 (stereo unspecified)",
    "solubility (mole fraction)": "3.67e-05"
  }
]

----------
# measurement.context: in ethyl acetate, 298.15 K
assay.endpoint: solubility (mole fraction)

[
  {
    "compound": "NCC(CC(=O)O)c1ccc(Cl)cc1 (stereo unspecified)",
    "value.observed": 0.00456
  }
]

----------
# measurement.context: in DMF, 278.15 K
assay.endpoint: solubility (mole fraction)

[
  {
    "molecule": "NCC(CC(=O)O)c1ccc(Cl)cc1 (stereo unspecified)",
    "assay.endpoint": "solubility (mole fraction)",
    "value.observed": 0.101
  }
]

----------
# measurement.context: in methanol, 298.15 K

[
  {
    "molecule": "NCC(CC(=O)O)c1ccc(Cl)cc1 (stereo unspecified)",
    "solubility (mole fraction)": 0.000153
  }
]

----------
# measurement.context: in n-propanol, 313.15 K

[
  {
    "molecule": "NCC(CC(=O)O)c1ccc(Cl)cc1 (stereo unspecified)",
    "solubility (mole fraction)": "7.63e-05"
  }
]

----------
# measurement.context: in DMF, 308.15 K

[
  {
    "molecule": "NCC(CC(=O)O)c1ccc(Cl)cc1 (stereo unspecified)",
    "solubility (mole fraction)": 0.112
  }
]

----------
# measurement.context: in acetone, 283.15 K
assay.endpoint: solubility (mole fraction)

[
  {
    "compound": "NCC(CC(=O)O)c1ccc(Cl)cc1 (stereo unspecified)",
    "value.observed": 0.000246
  }
]

----------
# measurement.context: in methanol, 293.15 K

[
  {
    "molecule": "NCC(CC(=O)O)c1ccc(Cl)cc1 (stereo unspecified)",
    "solubility (mole fraction)": 0.000143
  }
]

----------
# measurement.context: in methanol, 273.15 K

[
  {
    "molecule": "NCC(CC(=O)O)c1ccc(Cl)cc1 (stereo unspecified)",
    "solubility (mole fraction)": 0.000109
  }
]

----------
# measurement.context: in DMF, 288.15 K
assay.endpoint: solubility (mole fraction)

[
  {
    "molecule": "NCC(CC(=O)O)c1ccc(Cl)cc1 (stereo unspecified)",
    "value.observed": 0.104
  }
]
